System: K4 kissing-loop RNA reporter;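 further: bound reporter read as fluorescence of individual clusters on recovered sequencing chips by microscopy, with normalized cluster intensities fitted with a binding model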
Assay: apparent KD of K4 kissing-loop reporter; higher = weaker reporter binding
Conditions: Eterna round: R107; input ligand: theophylline 20 uM
measurement.kind: apparent KD of K4 kissing-loop reporter (nM)
I only need the number, in nM, no unit after it.

Measured apparent KD of K4 kissing-loop reporter, AUUUGUUUAUGUGAUACCAGACUAAGCAGUGAUGUUGCUUUUAUUUUUGAAUUUUAAAUAGUCCCUUGGCAGCACUAUGUCUGUA [#05 K4 Theophylline B Same State] : 161

Record ACGUCACGUAAACUCGUGGUUUCGAUCGAUACCAGUAGCGAGAGUUACCCUUGGCAGCGACAUGAGUGAUGUUCAUGUACGAAGA [KL-XTheoA1] . Reported apparent KD of K4 kissing-loop reporter: 102

Input AAGAAGAAUGGAAGGAGCGAGCAGAAAUAACCAGUGAUGUUGGAAAGCCUUAUUGCUUAAGCUCAGGUAGGUCGCCAAGAAAAGA [Mostly trial and error] . Output apparent KD of K4 kissing-loop reporter: 226

Record GUAGGAUGAGGAGGAGGAUGAAAUACUGAAGGAGCGCAGAGAAAUGCAGGUAGGUCGCGGUAAGGAAGUAUAGUGAUGUUAUAUA [#07 K4 Arginine A Same State] , field apparent KD of K4 kissing-loop reporter: 755

Measured apparent KD of K4 kissing-loop reporter, GAGGUACAGGCGGCCGCCACUAGUGAUGUUAGUGAUGUUUGAUACUGUAUAUAUCGGCGUGUAGAUAGGACCGGGCCUGAUGGAG [znmkmullin] : 109

apparent KD of K4 kissing-loop reporter in this record for GUAUCGCUAGGAGGAUAUUUCAAUUUGACUCUUUGAGUUAAUACGGAGUGAUGUUCCGUUUUACGGAAAGAAGGCCUAGUGAUAC [FMN B 14] : 172
